# test summary: Half life in rats after 10 mg/kg peroral and 5 mg/kg intravenous administration as sodium salts
# Type: ADME, organism-based
# measurement parameters: rat, in vivo
measured endpoint: half-life (h)

{"compound": "Cc1cccc(/C=C/Cc2ccccc2/C=C/C(=O)O)c1OCc1c(Cl)cccc1Cl", "endpoint unit": "h", "half-life": 2}
{"compound": "Cc1cccc(/C=C/Cc2ccccc2/C=C/C(=O)O)c1OCc1ccccc1.Cc1cccc(C/C=C/c2ccccc2/C=C/C(=O)O)c1OCc1ccccc1 (stereo in doubt; 2a/3a)", "endpoint unit": "h", "half-life": 2}
{"compound": "O=C(O)/C=C/c1ccccc1/C=C/c1ccccc1OCc1ccccc1", "endpoint unit": "h", "half-life": 2}

====

# measured on: Prostaglandin E2 receptor EP1 subtype (Homo sapiens)
# Sequence (P34995 whole entry): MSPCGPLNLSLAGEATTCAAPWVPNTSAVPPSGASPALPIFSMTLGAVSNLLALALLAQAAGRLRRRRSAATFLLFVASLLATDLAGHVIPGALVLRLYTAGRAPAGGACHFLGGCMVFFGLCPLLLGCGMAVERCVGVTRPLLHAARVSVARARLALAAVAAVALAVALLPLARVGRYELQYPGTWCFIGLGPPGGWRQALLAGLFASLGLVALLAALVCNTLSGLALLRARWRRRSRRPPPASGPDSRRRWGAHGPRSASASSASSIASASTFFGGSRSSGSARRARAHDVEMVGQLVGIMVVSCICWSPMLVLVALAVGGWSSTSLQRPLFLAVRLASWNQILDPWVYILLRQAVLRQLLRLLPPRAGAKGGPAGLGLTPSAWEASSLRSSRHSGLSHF
pKi: −log10 of the molar value.
measured endpoint: pKi

Qu. Which pKi reading was recorded for the compound Cc1cccc(/C=C/Cc2ccc(/C=C/C(=O)O)cc2)c1OCc1ccccc1.Cc1cccc(C/C=C\c2ccc(/C=C/C(=O)O)cc2)c1OCc1ccccc1 ?
Ans. < 4.52

Qu. What about Cc1cccc(/C=C/Cc2ccccc2/C=C/C(=O)O)c1OCc1ccccc1.Cc1cccc(C/C=C/c2ccccc2/C=C/C(=O)O)c1OCc1ccccc1 (stereo in doubt; 2a/3a) ?
Ans. 4.72

Qu. Ok, now COc1cc(/C=C\Cc2ccccc2/C=C/C(=O)O)ccc1OCc1ccccc1.COc1cc(C/C=C/c2ccccc2/C=C/C(=O)O)ccc1OCc1ccccc1
Ans. < 4.70

====

# test summary: Maximum concentration in rats after 10 mg/kg peroral and 5 mg/kg intravenous administration as sodium salts
# Format: ADME, organism-based
# measurement parameters: rat, in vivo, po
measured endpoint: Cmax (µM)

{"compound": "Cc1cccc(/C=C/Cc2ccccc2/C=C/C(=O)O)c1OCc1c(Cl)cccc1Cl", "Cmax [µM]": 25}

1. O=C(O)/C=C/c1ccccc1/C=C/c1ccccc1OCc1ccccc1
2. Cc1cccc(/C=C/Cc2ccccc2/C=C/C(=O)O)c1OCc1ccccc1.Cc1cccc(C/C=C/c2ccccc2/C=C/C(=O)O)c1OCc1ccccc1 (stereo in doubt; 2a/3a)
Qu. Given the listed items, does 1 or 2 have the lesser reported Cmax? Kindly give the label for the entry you pick.
Ans. 1

====

# measured on: UniProt:P43115
# Sequence (P43115 whole entry): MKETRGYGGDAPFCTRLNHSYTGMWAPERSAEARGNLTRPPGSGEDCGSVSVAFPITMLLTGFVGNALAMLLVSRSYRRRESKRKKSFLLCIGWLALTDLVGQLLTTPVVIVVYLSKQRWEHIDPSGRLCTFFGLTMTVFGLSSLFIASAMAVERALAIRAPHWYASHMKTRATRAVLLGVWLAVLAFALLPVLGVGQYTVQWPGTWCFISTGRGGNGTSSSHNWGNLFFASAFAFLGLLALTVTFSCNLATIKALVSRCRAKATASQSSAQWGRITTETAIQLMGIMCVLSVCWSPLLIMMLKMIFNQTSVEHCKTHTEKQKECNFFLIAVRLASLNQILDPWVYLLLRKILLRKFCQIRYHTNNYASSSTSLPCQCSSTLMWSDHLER
# test summary: Binding affinity for human prostanoid EP3 receptor
pKi: −log10 of the molar value.
measured endpoint: pKi

{"molecule": "O=C(O)/C=C/c1ccccc1/C=C/Cc1ccccc1OCc1ccccc1.O=C(O)/C=C/c1ccccc1C/C=C\\c1ccccc1OCc1ccccc1", "numeric result": 7.60}

A. Cc1cccc(/C=C/C(O)c2ccccc2/C=C/C(=O)O)c1OCc1c(Cl)cccc1Cl (configuration not stated)
B. O=C(O)/C=C/c1ccccc1/C=C/Cc1cccc(OCc2ccccc2)c1.O=C(O)/C=C/c1ccccc1C/C=C\c1cccc(OCc2ccccc2)c1
C. O=C(O)/C=C/c1ccccc1/C=C/c1ccccc1OCc1ccccc1
Qu. Arrange by pKi, high to low. Your task in answering is to list the labels in the requested order.
Ans. A, B, C
(A: 8.00, B: 7.30, C: 5.85)

a. O=C(O)/C=C/c1ccccc1/C=C/Cc1ccccc1.O=C(O)/C=C/c1ccccc1C/C=C/c1ccccc1
b. Cc1cccc(CCCc2ccccc2/C=C/C(=O)O)c1OCc1ccccc1
Qu. Please choose the item with the lower pKi value from this pair: a and b Mark your selection by writing its label.
Ans. a
(a: 7.00, b: 7.89)

====

# test summary: Bioavailability in rat (dose 10 mg/kg p.o. and 5 mg/kg i.v.) (dosed as sodium salt)
# Type: ADME, organism-based
# measurement parameters: in vivo, po
measured endpoint: bioavailability (%)

{"compound": "Cc1cccc(/C=C/Cc2ccccc2/C=C/C(=O)O)c1OCc1ccccc1.Cc1cccc(C/C=C/c2ccccc2/C=C/C(=O)O)c1OCc1ccccc1 (stereo in doubt; 2a/3a)", "measured endpoint": "bioavailability", "endpoint unit": "%", "numeric result": 97}

P. Cc1cccc(/C=C/Cc2ccccc2/C=C/C(=O)O)c1OCc1c(Cl)cccc1Cl
Q. O=C(O)/C=C/c1ccccc1/C=C/c1ccccc1OCc1ccccc1
Qu. Hi there! Just curious which has the higher bioavailability between P and Q . Kindly give the label for the entry you pick.
Ans. P

====

# measured on: Prostaglandin E2 receptor EP2 subtype (Homo sapiens, UniProt P43116)
# Sequence (P43116 whole entry): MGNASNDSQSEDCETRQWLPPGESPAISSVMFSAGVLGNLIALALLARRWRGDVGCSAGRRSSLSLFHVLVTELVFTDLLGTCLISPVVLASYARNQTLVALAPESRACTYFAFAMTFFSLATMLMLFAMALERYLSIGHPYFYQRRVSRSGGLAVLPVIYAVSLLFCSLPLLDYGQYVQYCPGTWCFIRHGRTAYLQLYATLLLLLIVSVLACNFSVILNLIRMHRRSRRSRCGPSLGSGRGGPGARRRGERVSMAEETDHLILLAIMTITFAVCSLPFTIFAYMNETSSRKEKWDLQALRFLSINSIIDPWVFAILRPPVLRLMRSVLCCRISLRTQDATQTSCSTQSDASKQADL
pKi: −log10 of the molar value.
measured endpoint: pKi

Solved cases below.
{"compound": "COc1ccc(/C=C/Cc2ccccc2/C=C/C(=O)O)cc1.COc1ccc(C/C=C/c2ccccc2/C=C/C(=O)O)cc1", "measured on": "Prostaglandin E2 receptor EP2 subtype (Homo sapiens, UniProt P43116)", "measured endpoint": "pKi", "numeric result": 5.60}
{"compound": "O=C(O)/C=C/c1ccccc1/C=C/c1ccccc1OCc1ccccc1", "measured on": "Prostaglandin E2 receptor EP2 subtype (Homo sapiens, UniProt P43116)", "measured endpoint": "pKi", "numeric result": 8.10}
{"compound": "COc1cc(/C=C\\Cc2ccccc2/C=C/C(=O)O)ccc1OCc1ccccc1.COc1cc(C/C=C/c2ccccc2/C=C/C(=O)O)ccc1OCc1ccccc1", "measured on": "Prostaglandin E2 receptor EP2 subtype (Homo sapiens, UniProt P43116)", "measured endpoint": "pKi", "numeric result": 6.12}

P. Cc1cccc(/C=C/Cc2ccccc2CC(=O)O)c1OCc1ccccc1.Cc1cccc(C/C=C/c2ccccc2CC(=O)O)c1OCc1ccccc1
Q. COc1cccc(CCCc2ccccc2/C=C/C(=O)O)c1OCc1ccccc1
R. Cc1cccc(/C=C/Cc2ccccc2/C=C/C(=O)O)c1OCc1c(Cl)cccc1Cl
S. CC(=O)c1ccc(OCc2ccccc2)c(/C=C/Cc2ccccc2/C=C/C(=O)O)c1.CC(=O)c1ccc(OCc2ccccc2)c(C/C=C/c2ccccc2/C=C/C(=O)O)c1
T. O=C(O)/C=C/c1ccccc1/C=C/Cc1cccc(OCc2ccccc2)c1.O=C(O)/C=C/c1ccccc1C/C=C\c1cccc(OCc2ccccc2)c1
Qu. Rank the 5 compounds: largest pKi first, smallest last. Write the labels in rank order as requested.
Ans. T, Q, P, R, S
(T: 7.74, Q: 5.96, P: 5.54, R: 5.27, S: 5.06)

I. Cc1cccc(/C=C/Cc2ccccc2/C=C/C(=O)O)c1OCc1ccc(F)cc1
II. Cc1cccc(/C=C/Cc2cccc(/C=C/C(=O)O)c2)c1OCc1ccccc1.Cc1cccc(C/C=C/c2cccc(/C=C/C(=O)O)c2)c1OCc1ccccc1
Qu. Lower value of pKi belongs to which: I or II ? Identify your pick by its label.
Ans. I
(I: 5.39, II: 6.20)

A. Cc1cccc(C(O)/C=C/c2ccccc2/C=C/C(=O)O)c1OCc1c(Cl)cccc1Cl (stereo not drawn)
B. Cc1cccc(/C=C/Cc2ccccc2/C=C/C(=O)O)c1OCc1ccccc1.Cc1cccc(C/C=C/c2ccccc2/C=C/C(=O)O)c1OCc1ccccc1 (stereo in doubt; 2a/3a)
Qu. Which has the smaller recorded pKi, A or B ? Answer by quoting the chosen item's label.
Ans. A
(A: 5.41, B: 6.07)

====

# measured on: Prostaglandin E2 receptor EP3 subtype (Homo sapiens, UniProt P43115)
# Sequence (P43115 whole entry): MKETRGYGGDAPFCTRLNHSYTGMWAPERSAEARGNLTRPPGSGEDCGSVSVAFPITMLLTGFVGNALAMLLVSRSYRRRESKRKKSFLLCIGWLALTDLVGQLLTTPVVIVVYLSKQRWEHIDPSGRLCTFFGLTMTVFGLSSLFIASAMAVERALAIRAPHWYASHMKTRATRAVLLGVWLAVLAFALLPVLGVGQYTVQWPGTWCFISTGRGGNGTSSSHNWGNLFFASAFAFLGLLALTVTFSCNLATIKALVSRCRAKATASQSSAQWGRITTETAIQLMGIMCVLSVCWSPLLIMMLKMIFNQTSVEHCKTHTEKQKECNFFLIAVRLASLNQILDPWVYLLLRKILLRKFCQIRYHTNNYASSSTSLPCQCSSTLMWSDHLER
pKi: −log10 of the molar value.
measured endpoint: pKi

# count of solved cases: 4
{"compound": "Cc1cccc(C(O)/C=C/c2ccccc2/C=C/C(=O)O)c1OCc1c(Cl)cccc1Cl (configuration not stated)", "numeric result": 8.05}
{"compound": "Cc1cccc(/C=C/Cc2ccccc2/C=C/C(=O)O)c1OCc1ccccc1.Cc1cccc(C/C=C/c2ccccc2/C=C/C(=O)O)c1OCc1ccccc1 (stereo in doubt; 2a)", "numeric result": 7.89}
{"compound": "Cc1cccc(/C=C/Cc2ccccc2/C=C/C(=O)O)c1OCc1ccccc1.Cc1cccc(C/C=C/c2ccccc2/C=C/C(=O)O)c1OCc1ccccc1 (stereo in doubt; 2a/3a)", "numeric result": 8.05}
{"compound": "Cc1cccc(/C=C/Cc2cccc(/C=C/C(=O)O)c2)c1OCc1ccccc1.Cc1cccc(C/C=C/c2cccc(/C=C/C(=O)O)c2)c1OCc1ccccc1", "numeric result": 5.70}

I. Cc1cccc(CCCc2ccccc2CCC(=O)O)c1OCc1ccccc1
II. Cc1cccc(/C=C\Cc2ccccc2C(=O)O)c1OCc1ccccc1.Cc1cccc(C/C=C/c2ccccc2C(=O)O)c1OCc1ccccc1
III. COc1cccc(CCCc2ccccc2/C=C/C(=O)O)c1OCc1ccccc1
Qu. Order the 3 compounds from highest to lowest pKi. // respond by listing labels in the order requested
Ans. III, I, II
